- testTarget: T1, human LAG-3 protein with hFc tag (hLAG-3-hFc protein) (human, UniProt P18627 23-450)
- T1 construct: also called immunogen 1; LAG-3 extracellular domain protein; not shown: human IgG Fc fragment (hFc) of the pCpC vector
- T1 sequence: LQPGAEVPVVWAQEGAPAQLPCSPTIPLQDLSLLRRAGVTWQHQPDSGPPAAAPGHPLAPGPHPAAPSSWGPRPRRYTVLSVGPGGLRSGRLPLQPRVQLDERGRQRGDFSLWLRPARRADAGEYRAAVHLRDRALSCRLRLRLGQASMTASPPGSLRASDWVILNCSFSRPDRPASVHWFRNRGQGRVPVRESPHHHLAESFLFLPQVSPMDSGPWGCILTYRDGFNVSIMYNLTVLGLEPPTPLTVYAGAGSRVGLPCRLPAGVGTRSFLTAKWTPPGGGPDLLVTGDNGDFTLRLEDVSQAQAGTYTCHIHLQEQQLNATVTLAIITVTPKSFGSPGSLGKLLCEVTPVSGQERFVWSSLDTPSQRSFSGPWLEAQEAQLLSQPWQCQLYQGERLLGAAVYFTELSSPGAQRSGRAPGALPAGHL
- experiment: ELISA, hLAG-3-hFc coated; 0.0067 nM
Please note: Satisfied applies when OD450 is 0.5 OD450 or greater, and Not satisfied applies otherwise.

Would you please look over these solved cases?
binder | assignedClass
405B8H3 (LAG-3 mouse-human chimeric antibody) (antibody, V domains shown, also called mouse-human chimeric antibody 405B8H3) VH: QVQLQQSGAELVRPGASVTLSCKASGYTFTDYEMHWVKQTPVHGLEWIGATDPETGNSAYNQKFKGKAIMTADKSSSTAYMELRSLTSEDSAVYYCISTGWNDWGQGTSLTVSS VL: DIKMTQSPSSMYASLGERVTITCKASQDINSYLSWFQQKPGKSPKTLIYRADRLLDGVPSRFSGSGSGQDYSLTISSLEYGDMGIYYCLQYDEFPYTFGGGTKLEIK | Satisfied
556F6B8 (LAG-3 mouse-human chimeric antibody) (antibody, V domains shown, also called 556F8B8) VH: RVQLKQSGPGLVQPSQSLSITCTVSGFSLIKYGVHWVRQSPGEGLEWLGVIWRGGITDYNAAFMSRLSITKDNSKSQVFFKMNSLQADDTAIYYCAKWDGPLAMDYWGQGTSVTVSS VL: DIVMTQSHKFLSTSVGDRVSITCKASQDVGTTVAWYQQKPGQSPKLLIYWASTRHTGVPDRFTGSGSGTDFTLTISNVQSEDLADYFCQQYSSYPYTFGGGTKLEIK | Not satisfied

Prompt: Kindly determine if OD450 recorded for 409D4E10 (LAG-3 mouse-human chimeric antibody) (antibody, V domains shown) VH: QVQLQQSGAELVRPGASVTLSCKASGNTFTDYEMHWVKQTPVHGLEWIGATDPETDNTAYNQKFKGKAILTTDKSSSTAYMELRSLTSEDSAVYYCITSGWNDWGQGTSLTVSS VL: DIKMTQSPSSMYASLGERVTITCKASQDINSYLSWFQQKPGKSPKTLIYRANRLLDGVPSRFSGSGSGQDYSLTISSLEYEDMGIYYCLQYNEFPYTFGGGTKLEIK is above or exactly 0.5 OD450.
Response: Satisfied

Prompt: Input 409B11E12 (LAG-3 mouse-human chimeric antibody) (antibody, V domains shown) VH: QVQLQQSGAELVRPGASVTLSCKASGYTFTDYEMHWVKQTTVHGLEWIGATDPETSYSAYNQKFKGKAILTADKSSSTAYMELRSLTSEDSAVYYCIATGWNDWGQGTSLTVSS VL: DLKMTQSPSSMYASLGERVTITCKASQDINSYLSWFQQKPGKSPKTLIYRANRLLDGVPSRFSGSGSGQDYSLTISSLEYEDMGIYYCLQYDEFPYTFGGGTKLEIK
Response: Not satisfied

Prompt: Input 105F1E10 (LAG-3 mouse-human chimeric antibody) (antibody, V domains shown) VH: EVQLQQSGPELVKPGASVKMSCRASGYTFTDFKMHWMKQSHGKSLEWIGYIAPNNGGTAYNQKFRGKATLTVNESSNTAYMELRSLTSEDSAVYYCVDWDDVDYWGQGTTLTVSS VL: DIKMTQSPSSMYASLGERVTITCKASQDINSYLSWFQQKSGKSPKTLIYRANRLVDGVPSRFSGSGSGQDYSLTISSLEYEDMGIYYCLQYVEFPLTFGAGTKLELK
Response: Not satisfied
